Test Details: Cytotoxicity against human LNCaP cells
Assay type: cell-based
Study Conditions: LNCaP cells, read-out: ED50 (the source's name)
Listed here: items and their measured CC50.
Your answer should be a plain number; it is taken to be in µg/mL.

Just so you know, measured CC50 for CC1=CCC[C@@H]2[C@@](C)(/C=C/C3=CC(=O)O[C@H]3O)[C@H](C)CC[C@@]12C came out at 2.5

====

Test Details: Cytotoxicity against human Lu1 cells
Type: cell-based
Study Conditions: Lu1 cells, read-out: ED50 (the source's name)
Listed here: items and their measured CC50.
Your answer should be a plain number; it is taken to be in µg/mL.

Example cases with answers are listed next.
CC1=CCC[C@@H]2[C@@](C)(/C=C/C3=CC(=O)O[C@H]3O)[C@H](C)CC[C@@]12C ... 2.6
CC1=CCC[C@@H]2[C@@](C)(CCC3=CC(=O)O[C@H]3O)[C@H](C)CC[C@@]12C ... 3.7
CC1=CCC[C@@H]2[C@@](C)(C[C@H](O)C3=CC(=O)O[C@H]3O)[C@H](C)CC[C@@]12C ... 2.4

Just so you know, measured CC50 for CC1=C(C=O)C[C@@H]2[C@@](C)(CCC3=CC(=O)OC3O)[C@H](C)CC[C@@]12C (stereo partly specified) came out at 8.7

Just so you know, measured CC50 for CC1=CCC[C@@H]2[C@@](C)(C[C@H](O)C3=CCOC3=O)[C@H](C)CC[C@@]12C came out at 2.9
